The origin of these recorded values is patent US20260217698A1.

# tgt: EGFR (Homo sapiens, UniProt P00533)
# Sequence (P00533 669-1210 limits assumed): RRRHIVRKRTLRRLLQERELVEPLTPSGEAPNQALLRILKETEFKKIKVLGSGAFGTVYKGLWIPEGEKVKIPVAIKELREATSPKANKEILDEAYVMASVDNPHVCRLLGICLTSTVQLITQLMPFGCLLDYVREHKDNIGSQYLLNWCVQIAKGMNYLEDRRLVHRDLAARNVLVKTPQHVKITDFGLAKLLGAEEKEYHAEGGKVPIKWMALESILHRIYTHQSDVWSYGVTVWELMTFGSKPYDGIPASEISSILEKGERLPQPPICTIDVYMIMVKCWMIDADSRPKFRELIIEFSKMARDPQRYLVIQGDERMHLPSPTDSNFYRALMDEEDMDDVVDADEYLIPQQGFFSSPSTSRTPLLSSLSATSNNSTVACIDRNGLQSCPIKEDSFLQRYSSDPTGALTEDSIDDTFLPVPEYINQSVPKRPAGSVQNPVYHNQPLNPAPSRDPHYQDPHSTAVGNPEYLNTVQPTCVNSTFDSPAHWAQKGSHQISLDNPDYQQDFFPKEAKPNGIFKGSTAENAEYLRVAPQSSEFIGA
recorded metric: pIC50
pIC50 is defined as minus the log10 of a concentration measured in mol/L.

Check out these entries, answers already filled in.
{"columns": ["structure notation", "recorded number"],
 "data": [
  ["CC(C)(C)OC(=O)CCNC(=O)Nc1snc(OCc2cc(C(=O)NC3CC3)ccc2F)c1C(N)=O", 5.23],
  ["CCN1CCN(CCCNC(=O)Nc2snc(OCc3cc(C(=O)NC4CC4)ccc3F)c2C(N)=O)CC1", 4.95],
  ["COc1ccc(F)c(COc2nsc(NC(=O)NCCCCN3CCCC3)c2C(N)=O)c1F", 4.84]
]}

Field pIC50 (system: EGFR (Homo sapiens, UniProt P00533)) for entry "CN1CCC(CCNC(=O)Nc2snc(OCc3ccc4c(c3F)OCC4)c2C(N)=O)CC1" = 4.61

Tested on EGFR (Homo sapiens, UniProt P00533), the item "CN1CCC(CCNC(=O)Nc2snc(OCc3ccc4c(c3)OCC4)c2C(N)=O)CC1" showed pIC50 equal to 4.94

Per the reported EGFR (Homo sapiens, UniProt P00533) data, "COc1ccc(F)c(COc2nsc(NC(=O)NCCCCN3CCCCC3)c2C(N)=O)c1F" has pIC50 of 4.82

Here "NC(=O)c1c(OCc2c(F)cc3c(c2F)OCC3)nsc1NC(=O)NCCCCN1CC[C@H](O)C1" was tested on EGFR (Homo sapiens, UniProt P00533), and its pIC50 came to 4.69

// returns pIC50 for "NC(=O)c1c(OCc2ccc3c(c2)CCO3)nsc1NC(=O)NCCCCN1CCCC1" with EGFR (Homo sapiens, UniProt P00533); value = 5.00

---

Entries with reported IC50 on EGFR (Homo sapiens)
Respond with the bare value in µM.

With EGFR (Homo sapiens) as the test system, "NC(=O)c1c(OCc2cc(C(=O)NC3CC3)ccc2Cl)nsc1NC(=O)NCCCCN1CCCC1" showed IC50 of 26.9

GET /values?item= "NC(=O)c1c(OCc2cc(C(=O)NC3CC3)ccc2F)nsc1NC(=O)NCCCN1CC[C@H](F)C1" &system= EGFR (Homo sapiens) returns IC50: 18

Observed IC50 on EGFR (Homo sapiens), entry "NC(=O)c1c(OCc2ccc3c(c2)COC3)nsc1NC(=O)NCCCCN1CCCC1" , equals 43.5

---

# tgt: TIE2 (Homo sapiens)
# Sequence (Q02763 23-1124): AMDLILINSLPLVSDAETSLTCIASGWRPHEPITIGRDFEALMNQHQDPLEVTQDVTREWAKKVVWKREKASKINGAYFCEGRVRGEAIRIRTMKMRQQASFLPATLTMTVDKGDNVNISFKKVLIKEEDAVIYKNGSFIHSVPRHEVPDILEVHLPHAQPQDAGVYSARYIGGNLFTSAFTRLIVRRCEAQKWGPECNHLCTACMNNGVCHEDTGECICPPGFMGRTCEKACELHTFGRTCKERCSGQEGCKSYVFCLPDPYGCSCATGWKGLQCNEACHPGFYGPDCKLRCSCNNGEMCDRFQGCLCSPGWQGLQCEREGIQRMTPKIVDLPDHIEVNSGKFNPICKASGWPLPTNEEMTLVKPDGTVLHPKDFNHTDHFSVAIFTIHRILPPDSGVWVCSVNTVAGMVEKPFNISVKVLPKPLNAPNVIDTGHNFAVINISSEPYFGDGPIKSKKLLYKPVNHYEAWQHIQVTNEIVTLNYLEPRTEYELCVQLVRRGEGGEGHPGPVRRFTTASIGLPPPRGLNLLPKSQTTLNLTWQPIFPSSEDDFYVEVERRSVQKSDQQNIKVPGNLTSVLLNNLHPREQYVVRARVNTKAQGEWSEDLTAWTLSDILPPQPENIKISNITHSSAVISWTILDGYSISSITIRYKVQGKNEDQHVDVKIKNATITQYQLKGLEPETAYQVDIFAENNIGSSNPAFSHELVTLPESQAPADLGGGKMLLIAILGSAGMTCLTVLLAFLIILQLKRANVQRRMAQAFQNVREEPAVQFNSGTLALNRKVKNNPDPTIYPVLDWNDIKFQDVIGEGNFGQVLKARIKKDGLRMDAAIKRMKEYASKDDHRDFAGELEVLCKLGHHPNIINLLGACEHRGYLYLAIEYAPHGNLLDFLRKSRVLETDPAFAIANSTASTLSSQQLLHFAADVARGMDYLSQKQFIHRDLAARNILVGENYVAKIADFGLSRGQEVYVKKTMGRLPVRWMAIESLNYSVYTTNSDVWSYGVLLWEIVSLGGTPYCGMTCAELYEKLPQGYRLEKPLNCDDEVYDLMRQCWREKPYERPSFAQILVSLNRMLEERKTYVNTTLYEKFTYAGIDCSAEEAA
Listing of entries alongside the reported IC50.

# example entries with known answers
{"columns": ["structure notation", "IC50"],
 "data": [
  ["NC(=O)c1c(OCc2ccc(F)c(C(=O)NC3CC3)c2)nsc1NC(=O)NCCCN1CCNCC1", "4270 nM"],
  ["NC(=O)c1c(OCc2ccc3ccoc3c2)nsc1NC(=O)NCCCCN1CCCC1", "157 nM"]
]}

Measured IC50 of "NC(=O)c1c(OCc2ccc3c(c2)OCC3)nsc1NC(=O)NCCC1CCN(CCF)CC1" : 221 nM

Value of IC50 reported for the compound "NC(=O)c1c(OCc2c(F)cc(Br)cc2F)nsc1Nc1cncc(OCCN2CCCC2)c1" is 230 nM

So, "COc1ccc(F)c(COc2nsc(NC(=O)NCCCCN3CCCC3)c2C(N)=O)c1F" ? Its IC50 was 181 nM

---

# tgt: VEGFR2 (Homo sapiens, UniProt P35968)
# Sequence (P35968 20-1356): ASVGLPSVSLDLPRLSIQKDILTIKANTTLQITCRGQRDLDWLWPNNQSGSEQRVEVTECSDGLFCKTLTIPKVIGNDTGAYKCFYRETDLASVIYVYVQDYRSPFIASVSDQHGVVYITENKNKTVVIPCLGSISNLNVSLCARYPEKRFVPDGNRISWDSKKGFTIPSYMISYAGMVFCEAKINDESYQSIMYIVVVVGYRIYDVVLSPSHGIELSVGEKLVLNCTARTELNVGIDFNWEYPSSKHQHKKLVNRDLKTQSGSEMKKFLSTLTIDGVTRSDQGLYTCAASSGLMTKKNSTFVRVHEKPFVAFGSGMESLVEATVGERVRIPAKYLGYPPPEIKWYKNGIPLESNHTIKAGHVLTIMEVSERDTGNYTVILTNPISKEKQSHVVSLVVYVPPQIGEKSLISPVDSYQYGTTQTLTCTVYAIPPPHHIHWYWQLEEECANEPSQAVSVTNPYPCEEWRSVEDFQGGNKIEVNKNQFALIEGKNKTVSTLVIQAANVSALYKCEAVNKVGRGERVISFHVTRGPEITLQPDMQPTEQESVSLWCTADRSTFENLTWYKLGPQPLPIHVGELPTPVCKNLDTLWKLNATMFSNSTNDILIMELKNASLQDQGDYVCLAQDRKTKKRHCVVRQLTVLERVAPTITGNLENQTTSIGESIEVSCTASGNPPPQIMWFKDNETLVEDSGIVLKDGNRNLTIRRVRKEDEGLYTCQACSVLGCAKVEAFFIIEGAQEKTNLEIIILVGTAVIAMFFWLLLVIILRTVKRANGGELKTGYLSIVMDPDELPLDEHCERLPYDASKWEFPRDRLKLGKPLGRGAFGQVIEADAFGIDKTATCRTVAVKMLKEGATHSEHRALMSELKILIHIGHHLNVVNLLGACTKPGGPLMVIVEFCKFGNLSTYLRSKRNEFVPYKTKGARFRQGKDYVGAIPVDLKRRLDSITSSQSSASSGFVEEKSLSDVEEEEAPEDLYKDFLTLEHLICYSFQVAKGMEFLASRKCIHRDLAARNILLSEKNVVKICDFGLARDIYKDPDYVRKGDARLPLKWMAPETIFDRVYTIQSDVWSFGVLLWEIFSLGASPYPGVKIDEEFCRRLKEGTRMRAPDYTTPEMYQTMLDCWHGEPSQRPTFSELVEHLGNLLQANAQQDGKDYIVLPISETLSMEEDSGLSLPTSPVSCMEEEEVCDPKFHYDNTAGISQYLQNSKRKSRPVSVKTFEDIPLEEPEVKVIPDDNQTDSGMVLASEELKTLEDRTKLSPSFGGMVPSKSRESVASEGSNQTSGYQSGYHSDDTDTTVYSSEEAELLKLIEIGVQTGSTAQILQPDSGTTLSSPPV
# procedure details: Inhibition of VEGF-induced VEGFR2 autophosphorylation (pVEGFR2) in HUVEC cells, ELISA
# Format: cell-based
# Design: endogenous in cells; host or cells: HUVEC
# condition parameters: 50 ng/mL human VEGF, compound 1 h
Below, each entry is listed with its recorded IC50.
Give just the numeric value; nM need not be written.

Below: 4 compounds and their reported IC50.
{"columns": ["structure notation", "tgt", "u", "recorded number"],
 "data": [
  ["CN1CC[C@H](CCNC(=O)Nc2snc(OCc3cc4c(cc3F)CCO4)c2C(N)=O)C1", "VEGFR2 (Homo sapiens, UniProt P35968)", "nM", 93],
  ["COc1ccc(F)c(COc2nsc(NC(=O)NCCCCN3CC[C@@H](O)C3)c2C(N)=O)c1F", "VEGFR2 (Homo sapiens, UniProt P35968)", "nM", 32.5],
  ["NC(=O)c1c(OCc2cc(C(=O)NC3CC3)ccc2Cl)nsc1NC(=O)NCCCCN1CCCC1", "VEGFR2 (Homo sapiens, UniProt P35968)", "nM", 0.78],
  ["NC(=O)c1c(OCc2cc(C(=O)NC3CC3)c(F)cc2F)nsc1NC(=O)NCCCCN1CCCC1", "VEGFR2 (Homo sapiens, UniProt P35968)", "nM", 4.9]
]}

Next item in the queue.
So, "NC(=O)c1c(OCc2cc3c(cc2F)CCO3)nsc1NC(=O)NCCCCN1CC[C@@H](O)C1" ? Its IC50 was 87
